- Test system: Cell membrane
- protocol_text: Induction of inner membrane permeabilization in Vibrio parahaemolyticus ATCC17802 at 5 times MIC measured upto 200 mins by propidium iodide penetration assay
- Assay type: cell membranes
The source made the active and inactive calls. The calls are words filed in the database; no cut-off is given here. Where a SMILES comes first, the peptide text is derived from it.
reported_property: Activity

- compound: "CC[C@H](C)[C@H](NC(=O)[C@H](CC(C)C)NC(=O)[C@H](CCCNC(=N)N)NC(=O)[C@H](CC(C)C)NC(=O)[C@H](CC(C)C)NC(=O)[C@H](CCCCN)NC(=O)[C@H](CCCCN)NC(=O)[C@H](Cc1ccccc1)NC(=O)[C@H](CC(C)C)NC(=O)CNC(=O)[C@@H](N)CC(C)C)C(=O)N[C@@H](CC(C)C)C(=O)N[C@@H](CCCCN)C(=O)NCC(=O)N[C@@H](Cc1ccccc1)C(=O)N[C@@H](CCCCN)C(=O)N[C@@H](CC(C)C)C(=O)O (H-LGLFKKLLRLILKGFKL-OH)"
  assay_value: "Active"
- compound: "CC[C@H](C)[C@H](NC(=O)[C@H](CCCCN)NC(=O)[C@H](CCCNC(=N)N)NC(=O)[C@H](CC(C)C)NC(=O)[C@H](CC(C)C)NC(=O)[C@H](CCCCN)NC(=O)[C@H](CCCCN)NC(=O)[C@H](Cc1ccccc1)NC(=O)[C@H](CC(C)C)NC(=O)CNC(=O)[C@@H](N)CCCNC(=N)N)C(=O)N[C@@H](CCCCN)C(=O)N[C@@H](CCCCN)C(=O)NCC(=O)N[C@@H](Cc1ccccc1)C(=O)N[C@@H](CCCCN)C(=O)N[C@@H](CCCCN)C(=O)O (H-RGLFKKLLRKIKKGFKK-OH)"
  assay_value: "Active"
